MEASUREMENT_LABEL: melting point

Solved entries (count: 6):
> print(dat)
                                   compound                result
1  O=C1CN(c2nc(N3CCOCC3)nc(-n3c(C(F)F)nc4ccccc43)n2)CC(=O)N1 [Production Example 35]         230 to 232 °C
2  Nc1cc(Cl)c2nc(C(F)F)n(-c3nc(N4CCOCC4)nc(N4CCCC4CO)n3)c2c1 (centres unmarked) [Production Example 30]         256 °C (dec.)
3  OCCN1CCN(c2nc(N3CCOCC3)nc(-n3c(C(F)F)nc4ccccc43)n2)CC1 [Compound 27]         174 to 177 °C
4  CC1(C)CN(c2nc(N3CCOCC3)nc(-n3c(C(F)F)nc4ccc(N)cc43)n2)CCO1 [Compound 13]  226 to 227 °C (dec.)
5  CC(=O)CN1CCN(c2nc(N3CCOCC3)nc(-n3c(C(F)F)nc4ccccc43)n2)CC1 [Compound 30]           79 to 81 °C
6  O=CN1CCN(c2nc(N3CCOCC3)nc(-n3c(C(F)F)nc4ccccc43)n2)CC1 [Production Example 33]         228 to 230 °C

Can you share its melting point? I mean this compound: Nc1nc2ccccc2n1-c1nc(N2CCOCC2)cc(N2CCOCC2)n1 [Compound 5]
237 to 239 °C

Then what about the compound O=C(c1ccco1)N1CCN(c2nc(N3CCOCC3)nc(-n3c(C(F)F)nc4ccccc43)n2)CC1 [Compound 31] ?
220 to 222 °C
